# testedTarget: Fyn (UniProt P06241)
# Sequence (P06241 whole entry, looked up): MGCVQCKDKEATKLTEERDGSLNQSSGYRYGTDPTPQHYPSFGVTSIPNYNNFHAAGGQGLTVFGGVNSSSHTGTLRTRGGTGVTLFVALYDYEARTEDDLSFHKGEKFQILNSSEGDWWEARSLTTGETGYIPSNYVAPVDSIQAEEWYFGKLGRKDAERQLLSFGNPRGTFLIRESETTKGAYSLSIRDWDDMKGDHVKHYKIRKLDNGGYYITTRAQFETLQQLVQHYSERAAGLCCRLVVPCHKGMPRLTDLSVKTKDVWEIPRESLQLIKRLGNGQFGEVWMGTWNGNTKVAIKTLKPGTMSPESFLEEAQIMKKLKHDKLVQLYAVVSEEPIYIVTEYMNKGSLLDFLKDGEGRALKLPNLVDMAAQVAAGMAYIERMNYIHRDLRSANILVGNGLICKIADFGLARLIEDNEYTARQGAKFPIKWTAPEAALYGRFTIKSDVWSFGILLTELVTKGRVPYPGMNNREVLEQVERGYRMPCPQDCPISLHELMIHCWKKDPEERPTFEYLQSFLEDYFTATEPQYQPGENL
# assay: phosphorylation enrichment, bacterial display (enrichment ratio); higher = better substrate or ligand; peptides without Tyr show the background;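 also: 11-residue human phosphosite peptides and single-mutation variants displayed on the E. coli surface, counted by deep sequencing, each peptide's frequency after selection divided by its frequency in the unselected input library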;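 also: frequency after pTyr selection over input frequency; kinase dosed for 20-30% of maximal phosphorylation in three min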
The label depends only on phosphorylation enrichment: Criterion met if it is at least 0.5, Criterion not met if it is smaller.

entrySequence | className
IGNGFYFRVFS [MYBPC3_Y1136_YF] | Criterion not met
LSSISYVGCSL [ADGRD1_Y571] | Criterion met
DLHGIYQKLVI | Criterion met
ADARMYGDLPW [PLP1_Y207_V209D] | Criterion met
LNPLVYTLRNA [OR4C12_Y285_V283L] | Criterion met
GIMEEYQLPFF [BMPR1A_Y453_V450M_YF] | Criterion met
CTTIHYNYMCD [TP53_Y234_N239D] | Criterion not met
RMDGKYACSFT [FLNB_Y704_T703K_YF] | Criterion met
SFLFRYADDSF [RAB3C_Y50] | Criterion not met
EESSHYSTEKE [ADAR_Y587] | Criterion met
KVGNEYITKGQ [MYH7_Y410_V411I] | Criterion not met
SWVVPYEPPEV [TP53_Y220_V216W] | Criterion not met
ALSDGYWVVSN [TPP1_Y459] | Criterion not met
GKSDPYHATSG [GJA1_Y247] | Criterion not met
SERNNYSRVAN [CWC22_Y797] | Criterion not met
TTGGFYSFGGG [KRT24_Y120_A115T_YF] | Criterion met
TQPSPYAVFRF [RPGRIP1_Y823_YF] | Criterion met
LQLLGHRPVYS [CHST6_Y358_Y358H] | Criterion met
NSGFFYKTAEE [CCT6B_Y250] | Criterion not met
DGTIVCTGLET [USH2A_Y4487_Y4487C] | Criterion not met
ITRDIYETDFF [INSR_Y1185_M1180I_YF] | Criterion met
EMFNPYYGLFE [NEDD4L_Y679] | Criterion met
LRFEVYGGENE [STOX1_Y610_YF] | Criterion met
RHCSGYVLIAM [EFR3A_Y73_R70C] | Criterion not met
KTVQDYLEKFF [MMP8_Y36_YF] | Criterion met
RALCHYYKLNI [ETV6_Y401_R399C] | Criterion met
VSRGRYRPEEC [B4GALT4_Y113_Q116E] | Criterion not met
VNTTLYEKFTF [TEK_Y1108_YF] | Criterion met
KPEKTYGLRKE [CEP43_Y267] | Criterion not met
HICTAYELVLA [DHCR24_Y190] | Criterion met

Reference source for all entries: the supplement of paper PMC10065799
